- Test system: L1210 leukemia ip in BDF1 mice, survival T/C
- assay comment: NCI In Vivo Anticancer Drug Screen. Data for tumor model L1210 Leukemia (intraperitoneal) in B6D2F1 (BDF1) mice
- run parameters: endpoint: mean survival time; dose: 400.0 mg/kg/injection; schedule: Q04DX003 (ip); vehicle: saline; higher = longer survival
Inconclusive results and toxic doses are left out.
measurement label: T/C

compound	result
CC(C)SC=O	100 % of control
CCC(N)(C(=O)O)C1CCCCC1 (configuration not stated)	93 % of control
CCCOP(=O)(CCl)OCCC	101 % of control
OC1C(O)C(O)C(O)C(O)C1O (configuration not stated)	107 % of control
CCCCP(=S)(N1CCCCC1)N1CCCCC1	86 % of control
CCOC(=O)C1=C(C)CC(=O)NC1=O	90 % of control
N#CC1C=Cc2ccccc2N1C(=O)Oc1ccccc1 (configuration not stated)	94 % of control
O=C(Oc1ccc([N+](=O)[O-])cc1)c1ccc(C[P+](c2ccccc2)(c2ccccc2)c2ccccc2)cc1	93 % of control
CN=C(C)C1=C(O)C(CC(=O)OC)N(C)C1=O (configuration not stated)	96 % of control
NC(=O)Nc1cc(NC(N)=O)cc([N+](=O)[O-])c1	110 % of control
CNC(=O)C(C)C1C(=O)/C(=C(O)/C=C/C(C)=C\C(C)C2OC3(C)OC(C=CC34CO4)C2C)C(=O)N1C1CCC(O)C(C)O1 (configuration not stated)	107 % of control
O=C(O)c1cc(O)c(Br)c(O)c1	95 % of control
